- Test system: MCF7
- assay: Cytotoxicity against human MCF7 cells assessed as induction of cell death at 10 uM after 72 hrs by LDH assay
- Assay type: cell-based
- conditions used: mcf7, 72 h
Please assign a class to every record based on measured Activity, with ranges low (below 5%), moderate (5% to below 8%), high (8% or more)

>>> label_value("COc1ccc([C@@H]2[C@H](Oc3ccccc3)C(=O)N2c2cc(OC)c(OC)c(OC)c2)cc1[N+](=O)[O-] (relative stereo)")
"moderate"
>>> label_value("COc1ccc([C@@H]2[C@@H](Oc3ccccc3)C(=O)N2c2cc(OC)c(OC)c(OC)c2)cc1 (relative stereo)")
"moderate"
>>> label_value("COc1cc([N+](=O)[O-])c([C@@H]2[C@H](Oc3ccccc3)C(=O)N2c2cc(OC)c(OC)c(OC)c2)cc1O (relative stereo)")
"high"
>>> label_value("COc1cc(N2C(=O)[C@@H](Oc3ccccc3)[C@H]2c2cccc3ccccc23)cc(OC)c1OC (relative stereo)")
"low"
>>> label_value("COc1ccc([C@@H]2[C@H](Oc3ccccc3)C(=S)N2c2cc(OC)c(OC)c(OC)c2)cc1O (relative stereo)")
"low"
>>> label_value("COc1ccc([C@@H]2[C@H](Oc3ccccc3)C(=O)N2c2cc(OC)c(OC)c(OC)c2)cc1N")
"moderate"
>>> label_value("COc1ccc([C@@H]2[C@@H](Oc3ccccc3)C(=O)N2c2cc(OC)c(OC)c(OC)c2)cc1Br (relative stereo)")
"low"
>>> label_value("COc1cc(N2C(=O)[C@@H](Oc3ccccc3)[C@H]2c2cc(N)c(OC)c(O)c2)cc(OC)c1OC (relative stereo)")
"high"
>>> label_value("COc1ccc([C@@H]2[C@H](Oc3ccccc3)C(=O)N2c2cc(OC)c(OC)c(OC)c2)c([N+](=O)[O-])c1O (relative stereo)")
"high"
>>> label_value("COc1cc(N2C(=O)[C@@H](Oc3ccccc3)[C@H]2c2ccc(O)cc2)cc(OC)c1OC (relative stereo)")
"low"
>>> label_value("COc1ccc(/C=C\\c2cc(OC)c(OC)c(OC)c2)cc1O")
"moderate"
>>> label_value("COc1ccc([C@@H]2[C@H](Oc3ccccc3)C(=O)N2c2cc(OC)c(OC)c(OC)c2)cc1NC(=O)CCCc1ccc(N(CCCl)CCCl)cc1 (relative stereo)")
"low"
>>> label_value("COc1ccc([C@@H]2[C@H](Oc3ccccc3)C(=O)N2c2cc(OC)c(OC)c(OC)c2)cc1F (relative stereo)")
"high"
